target: FGF14:Nav1.6 C-tail complex (Homo sapiens, UniProt Q92915+Q9UQD0); construct: polymerase chain reaction (PCR) amplification of the FGF14 open reading frame (nt 1–855); C-terminal fragment of Nav1.6 (amino acids 1763–1976) fused with CD4ΔC-tail (amino acids 1–395); expressed in transfected cells; assay: Split-luciferase complementation assay (LCA) in Clone V double stable HEK293 cells; assay type: cell-based; conditions: CC_NCI screening; LCA luminescence, biological replicate Set 2; normalized to on-plate 0.3% DMSO controls (n=16 per plate)
Sequence (Q92915 1-252 isoform Q92915-2): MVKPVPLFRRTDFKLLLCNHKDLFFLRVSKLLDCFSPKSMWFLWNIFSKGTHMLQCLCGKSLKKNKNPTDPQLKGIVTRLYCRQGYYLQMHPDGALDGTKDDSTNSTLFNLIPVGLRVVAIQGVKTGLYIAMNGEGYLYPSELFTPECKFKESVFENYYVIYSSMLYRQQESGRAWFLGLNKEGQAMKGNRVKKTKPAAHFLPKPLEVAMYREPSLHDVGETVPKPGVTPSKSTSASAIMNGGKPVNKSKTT
Sequence (Q9UQD0 1763-1976 limits assumed): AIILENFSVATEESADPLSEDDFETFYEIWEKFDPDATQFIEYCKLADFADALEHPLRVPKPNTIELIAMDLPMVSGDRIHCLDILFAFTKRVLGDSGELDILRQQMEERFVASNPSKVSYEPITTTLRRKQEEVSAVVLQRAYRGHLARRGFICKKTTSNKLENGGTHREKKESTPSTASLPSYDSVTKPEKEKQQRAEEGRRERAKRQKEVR

compound: O=C(O)C(=O)O.[NH-][C@@H]1CCCC[C@H]1[NH-].[Pt+2]
experimental-target: FGF14:Nav1.6 C-tail complex (Homo sapiens, UniProt Q92915+Q9UQD0)
Split Luciferase Assay %Lum Set 2 [%]: 119.64
--
compound: C=C(c1ccc(C(=O)O)cc1)c1cc2c(cc1C)C(C)(C)CCC2(C)C
experimental-target: FGF14:Nav1.6 C-tail complex (Homo sapiens, UniProt Q92915+Q9UQD0)
Split Luciferase Assay %Lum Set 2 [%]: 99.87
--
compound: Cc1ccc(NC(=O)c2ccc(CN3CCN(C)CC3)cc2)cc1Nc1nc(-c2cccnc2)cs1
experimental-target: FGF14:Nav1.6 C-tail complex (Homo sapiens, UniProt Q92915+Q9UQD0)
Split Luciferase Assay %Lum Set 2 [%]: 16.64
--
compound: COc1ccc(Cl)cc1[C@]1(F)C(=O)Nc2cc(C(F)(F)F)ccc21
experimental-target: FGF14:Nav1.6 C-tail complex (Homo sapiens, UniProt Q92915+Q9UQD0)
Split Luciferase Assay %Lum Set 2 [%]: 17.69
--
compound: C[C@@H](Oc1cc(-c2cnn(C3CCNCC3)c2)cnc1N)c1c(Cl)ccc(F)c1Cl
experimental-target: FGF14:Nav1.6 C-tail complex (Homo sapiens, UniProt Q92915+Q9UQD0)
Split Luciferase Assay %Lum Set 2 [%]: 48.89
--
compound: OCC1OC(O)CC(O)C1O (centres unmarked)
experimental-target: FGF14:Nav1.6 C-tail complex (Homo sapiens, UniProt Q92915+Q9UQD0)
Split Luciferase Assay %Lum Set 2 [%]: 130.04
--
compound: O=C(/C=C/c1ccc(CN(CCO)CCc2c[nH]c3ccccc23)cc1)NO
experimental-target: FGF14:Nav1.6 C-tail complex (Homo sapiens, UniProt Q92915+Q9UQD0)
Split Luciferase Assay %Lum Set 2 [%]: 83.22
--
compound: CO[C@H]1/C=C\C=C(/C)C(=O)NC2=CC(=O)C(NCCN(C)C)=C(C[C@@H](C)C[C@H](OC)[C@H](O)[C@@H](C)/C=C(\C)[C@@H]1OC(N)=O)C2=O
experimental-target: FGF14:Nav1.6 C-tail complex (Homo sapiens, UniProt Q92915+Q9UQD0)
Split Luciferase Assay %Lum Set 2 [%]: 65.54

###

target: FGF14:Nav1.6 C-tail complex (Homo sapiens, UniProt Q92915+Q9UQD0); construct: polymerase chain reaction (PCR) amplification of the FGF14 open reading frame (nt 1–855); C-terminal fragment of Nav1.6 (amino acids 1763–1976) fused with CD4ΔC-tail (amino acids 1–395); expressed in transfected cells; assay: Split-luciferase complementation assay (LCA) in Clone V double stable HEK293 cells; assay type: cell-based; details: CC_NCI screening; LCA luminescence, biological replicate Set 2; normalized to on-plate 0.3% DMSO controls (n=16 per plate)
Where a name gives a salt, the structure may show the parent alone.

molecule: O=C(c1ccc(OCCN2CCCCC2)cc1)c1c(-c2ccc(O)cc2)sc2cc(O)ccc12 [Raloxifene]
experimental-target: FGF14:Nav1.6 C-tail complex (Homo sapiens, UniProt Q92915+Q9UQD0)
readout-units: %
Split Luciferase Assay %Lum Set 2: 52.02

molecule: COc1cccc2c1C(=O)c1c(O)c3c(c(O)c1C2=O)C[C@@](O)(C(C)=O)C[C@@H]3O[C@H]1C[C@H](N)[C@H](O)[C@H](C)O1 [Daunorubicin hydrochloride]
experimental-target: FGF14:Nav1.6 C-tail complex (Homo sapiens, UniProt Q92915+Q9UQD0)
readout-units: %
Split Luciferase Assay %Lum Set 2: 61.38

molecule: CC1=C(/C=C/C(C)=C/C=C/C(C)=C/C(=O)O)C(C)(C)CCC1 [Tretinoin]
experimental-target: FGF14:Nav1.6 C-tail complex (Homo sapiens, UniProt Q92915+Q9UQD0)
readout-units: %
Split Luciferase Assay %Lum Set 2: 106.11

molecule: Cn1cc(C2=C(c3cn(C4CCN(Cc5ccccn5)CC4)c4ccccc34)C(=O)NC2=O)c2ccccc21 [ENZASTAURIN]
experimental-target: FGF14:Nav1.6 C-tail complex (Homo sapiens, UniProt Q92915+Q9UQD0)
readout-units: %
Split Luciferase Assay %Lum Set 2: 96.75

molecule: CO[C@H]1C[C@@H]2CC[C@@H](C)[C@@](O)(O2)C(=O)C(=O)N2CCCC[C@H]2C(=O)O[C@H]([C@H](C)C[C@@H]2CC[C@@H](OC(=O)C(C)(CO)CO)[C@H](OC)C2)CC(=O)[C@H](C)/C=C(\C)[C@@H](O)[C@@H](OC)C(=O)[C@H](C)C[C@H](C)/C=C/C=C/C=C/1C [Temsirolimus]
experimental-target: FGF14:Nav1.6 C-tail complex (Homo sapiens, UniProt Q92915+Q9UQD0)
readout-units: %
Split Luciferase Assay %Lum Set 2: 62.42

molecule: CNC(=O)c1ccc(N2C(=S)N(c3ccc(C#N)c(C(F)(F)F)c3)C(=O)C2(C)C)cc1F [Enzalutamide]
experimental-target: FGF14:Nav1.6 C-tail complex (Homo sapiens, UniProt Q92915+Q9UQD0)
readout-units: %
Split Luciferase Assay %Lum Set 2: 98.83

molecule: CCCCCCCCCCCCSc1nc2c([nH]1)c(=O)n(C)c(=O)n2C
experimental-target: FGF14:Nav1.6 C-tail complex (Homo sapiens, UniProt Q92915+Q9UQD0)
readout-units: %
Split Luciferase Assay %Lum Set 2: 118.60

molecule: Oc1ncnc2[nH]ncc12 [Allopurinol]
experimental-target: FGF14:Nav1.6 C-tail complex (Homo sapiens, UniProt Q92915+Q9UQD0)
readout-units: %
Split Luciferase Assay %Lum Set 2: 95.71

molecule: CCN(CC)CCNC(=O)c1c(C)[nH]c(/C=C2\C(=O)Nc3ccc(F)cc32)c1C [SUNITINIB]
experimental-target: FGF14:Nav1.6 C-tail complex (Homo sapiens, UniProt Q92915+Q9UQD0)
readout-units: %
Split Luciferase Assay %Lum Set 2: 74.90

molecule: C#Cc1cccc(Nc2ncnc3cc(OCCOC)c(OCCOC)cc23)c1 [Erlotinib hydrochloride]
experimental-target: FGF14:Nav1.6 C-tail complex (Homo sapiens, UniProt Q92915+Q9UQD0)
readout-units: %
Split Luciferase Assay %Lum Set 2: 73.86

molecule: CCn1c(-c2nonc2N)nc2cnc(Oc3cccc(NC(=O)c4ccc(OCCN5CCOCC5)cc4)c3)cc21 [GSK 269962A]
experimental-target: FGF14:Nav1.6 C-tail complex (Homo sapiens, UniProt Q92915+Q9UQD0)
readout-units: %
Split Luciferase Assay %Lum Set 2: 31.21

molecule: CN(C)C/C=C/C(=O)Nc1cc2c(Nc3ccc(F)c(Cl)c3)ncnc2cc1O[C@H]1CCOC1 [Afatinib]
experimental-target: FGF14:Nav1.6 C-tail complex (Homo sapiens, UniProt Q92915+Q9UQD0)
readout-units: %
Split Luciferase Assay %Lum Set 2: 61.38

molecule: CN1CCN(c2ccc3nc(-c4c(N)c5c(F)cccc5[nH]c4=O)[nH]c3c2)CC1 [CHIR 258]
experimental-target: FGF14:Nav1.6 C-tail complex (Homo sapiens, UniProt Q92915+Q9UQD0)
readout-units: %
Split Luciferase Assay %Lum Set 2: 66.58

molecule: COc1cc2ncn(-c3cc(OCc4ccccc4C(F)(F)F)c(C(N)=O)s3)c2cc1OC [GW 843682X]
experimental-target: FGF14:Nav1.6 C-tail complex (Homo sapiens, UniProt Q92915+Q9UQD0)
readout-units: %
Split Luciferase Assay %Lum Set 2: 170.61

molecule: CCC1=C[C@@H]2CN(C1)Cc1c([nH]c3ccccc13)[C@@](C(=O)OC)(c1cc3c(cc1OC)N(C)[C@H]1[C@@](O)(C(=O)OC)[C@H](OC(C)=O)[C@]4(CC)C=CCN5CC[C@]31[C@@H]54)C2 [Vinorelbine tartrate]
experimental-target: FGF14:Nav1.6 C-tail complex (Homo sapiens, UniProt Q92915+Q9UQD0)
readout-units: %
Split Luciferase Assay %Lum Set 2: 185.18

molecule: COc1cc2c(Nc3ccc(Br)cc3F)ncnc2cc1OCC1CCN(C)CC1 [Vandetanib]
experimental-target: FGF14:Nav1.6 C-tail complex (Homo sapiens, UniProt Q92915+Q9UQD0)
readout-units: %
Split Luciferase Assay %Lum Set 2: 115.47

molecule: Cn1cc(CNCC2CCN(c3ncc(C(=O)NO)cn3)CC2)c2ccccc21 [JNJ-26481585]
experimental-target: FGF14:Nav1.6 C-tail complex (Homo sapiens, UniProt Q92915+Q9UQD0)
readout-units: %
Split Luciferase Assay %Lum Set 2: 109.23

molecule: O=C(CCBr)N1CCN(C(=O)CCBr)CC1 [Pipobroman]
experimental-target: FGF14:Nav1.6 C-tail complex (Homo sapiens, UniProt Q92915+Q9UQD0)
readout-units: %
Split Luciferase Assay %Lum Set 2: 121.72

molecule: COc1cc([C@@H]2c3cc4c(cc3[C@@H](O[C@@H]3O[C@@H]5CO[C@@H](C)O[C@H]5[C@H](O)[C@H]3O)[C@H]3COC(=O)[C@H]23)OCO4)cc(OC)c1O [Etoposide]
experimental-target: FGF14:Nav1.6 C-tail complex (Homo sapiens, UniProt Q92915+Q9UQD0)
readout-units: %
Split Luciferase Assay %Lum Set 2: 72.82
